# test.system: T1, human LILRA1 (human, UniProt O75019 17-489)
# T1 construct: Over-expressed on CHO-s cells; also called hLILRA1
# T1 sequence (O75019 17-489 limits assumed): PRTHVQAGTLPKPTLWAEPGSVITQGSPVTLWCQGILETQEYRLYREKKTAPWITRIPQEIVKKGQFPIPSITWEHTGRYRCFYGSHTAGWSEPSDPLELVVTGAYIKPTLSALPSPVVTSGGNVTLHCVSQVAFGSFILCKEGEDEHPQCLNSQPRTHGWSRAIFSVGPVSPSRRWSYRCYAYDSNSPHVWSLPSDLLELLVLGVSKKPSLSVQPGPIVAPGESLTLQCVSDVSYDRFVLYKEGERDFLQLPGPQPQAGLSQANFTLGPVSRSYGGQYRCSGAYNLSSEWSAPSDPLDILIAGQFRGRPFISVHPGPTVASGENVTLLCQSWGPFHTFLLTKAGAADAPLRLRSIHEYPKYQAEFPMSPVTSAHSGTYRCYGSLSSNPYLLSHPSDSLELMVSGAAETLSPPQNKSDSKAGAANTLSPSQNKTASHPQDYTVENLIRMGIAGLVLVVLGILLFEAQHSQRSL
# procedure.summary: flow cytometry, LILRA1 CHOs
endpoint: binding (fold over iso)
A number alone suffices; assume fold over iso.

Exam item: Requested read-out: binding (fold over iso). Entry: J-03 (antibody, human IgG4 S228P, kappa, V domains shown, Human IgG4 chimera of murine origin) VH: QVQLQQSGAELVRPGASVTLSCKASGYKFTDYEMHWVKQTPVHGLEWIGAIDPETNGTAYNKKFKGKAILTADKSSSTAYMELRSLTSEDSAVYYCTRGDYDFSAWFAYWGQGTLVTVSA VL: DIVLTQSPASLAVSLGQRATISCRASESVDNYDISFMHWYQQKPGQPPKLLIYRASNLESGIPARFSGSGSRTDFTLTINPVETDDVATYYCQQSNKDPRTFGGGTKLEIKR
Marked response: 0.89

Exam item: Requested read-out: binding (fold over iso). Entry: J-19 (antibody, human IgG4 S228P, kappa, V domains shown, Human IgG4 chimera from a rat immunization; also called J-19.h) VH: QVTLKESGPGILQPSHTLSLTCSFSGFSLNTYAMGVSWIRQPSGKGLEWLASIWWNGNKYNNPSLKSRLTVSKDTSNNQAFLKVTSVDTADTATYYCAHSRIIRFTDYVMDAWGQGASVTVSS VL: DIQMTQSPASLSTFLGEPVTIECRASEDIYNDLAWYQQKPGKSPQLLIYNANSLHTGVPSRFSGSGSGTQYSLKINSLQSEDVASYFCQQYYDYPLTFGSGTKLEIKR
Marked response: -3.31

Exam item: Requested read-out: binding (fold over iso). Entry: J-11 (antibody, human IgG4 S228P, kappa, V domains shown, Human IgG4 chimera of murine origin; also called J-11.h) VH: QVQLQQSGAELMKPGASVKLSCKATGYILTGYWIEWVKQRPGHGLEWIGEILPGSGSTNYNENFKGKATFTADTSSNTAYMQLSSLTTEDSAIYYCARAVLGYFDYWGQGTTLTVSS VL: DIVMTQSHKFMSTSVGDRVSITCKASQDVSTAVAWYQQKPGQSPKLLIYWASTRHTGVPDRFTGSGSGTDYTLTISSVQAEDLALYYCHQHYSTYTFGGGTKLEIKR
Marked response: -1.63

// next item, binding (fold over iso) requested
Exam item: Requested read-out: binding (fold over iso). Entry: J-04 (antibody, human IgG4 S228P, kappa, V domains shown, Human IgG4 chimera of murine origin) VH: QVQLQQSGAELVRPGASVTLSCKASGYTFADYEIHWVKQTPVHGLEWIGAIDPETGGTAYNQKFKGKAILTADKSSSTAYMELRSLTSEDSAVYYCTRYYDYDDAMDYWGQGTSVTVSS VL: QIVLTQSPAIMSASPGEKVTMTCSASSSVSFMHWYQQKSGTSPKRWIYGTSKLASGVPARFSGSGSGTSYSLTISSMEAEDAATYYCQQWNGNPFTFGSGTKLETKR
Marked response: 0.88
